Reference source for all entries: the Immune Epitope Database (IEDB)

assayTarget: HLA-A*24:03
assaySummary: IEDB peptide-MHC binding, purified MHC/direct/fluorescence; filed as Kd, often an IC50 or EC50 that approximates it; bounds were set here for any values at or beyond the usual limits of such assays
recordedConditions: source organism: Salmonella enterica subsp. enterica serovar Berta
pKd: −log10 of the molar value.
outcomeMeasure: pKd

residueSequence	assayTarget	outcomeMeasure	value
HQDDGQPRL	HLA-A*24:03	pKd	≤ 4.70

----------
assayTarget: HLA-B*40:01
assaySummary: IEDB peptide-MHC binding, purified MHC/direct/fluorescence; filed as Kd, often an IC50 or EC50 that approximates it; bounds were set here for any values at or beyond the usual limits of such assays
recordedConditions: source organism: Mycobacterium avium 104
pKd: −log10 of the molar value.

residueSequence	pKd
VRDVVMPAL	≤ 4.70
